# system.under.test: K103NNY181C mutant reverse transcriptase (Human immunodeficiency virus type 1 group M subtype B, UniProt P04585, K690N/Y768C)
# Construct: mutations that occur in the reverse transcriptase segment of the pol gene
# assay.comment: Reverse transcriptase enzymatic assay (PicoGreen), K103N/Y181C mutant RT
# Type: biochemical, HIV-1
# condition.details: IC50 mut, K103N/Y181C mutant reverse transcriptase, enzymatic assay of Example 24
Record form. Attribute: IC50. Fill in for each entry.
Give bare numbers, in nM.

See these solved cases before continuing.
CC(C)(C)c1ccc(-n2nnnc2SCC(=O)Nc2ccc(C#CCN3CCCC3)cc2Cl)c(Cl)c1
46
CC(C)(C#Cc1ccc(NC(=O)CSc2nnnn2-c2cc(C(F)(F)F)ccc2Cl)c(Cl)c1)NC(=O)c1ncccn1
20.5
CC(C)(C#Cc1ccc(NC(=O)CSc2nnnn2-c2ccc(C3CC3)cc2Cl)c(Cl)c1)C(=O)NCCN1CCCC1
65

Shift focus to the following entry.
Task item: Please look up its IC50: `CC(C)(C#Cc1ccc(NC(=O)CSc2nnnn2-c2ccc(C3CC3)cc2Cl)c(Cl)c1)NCc1ccccc1O`
Reply: 43

====

# system.under.test: K103NNY181C mutant reverse transcriptase (Human immunodeficiency virus type 1 group M subtype B, UniProt P04585, K690N/Y768C)
# Construct: mutations that occur in the reverse transcriptase segment of the pol gene
# assay.comment: Reverse transcriptase enzymatic assay (PicoGreen), K103N/Y181C mutant RT
# Assay type: biochemical, HIV-1
# condition.details: IC50 mut (nM), mutant (K103N/Y181C) reverse transcriptase, enzymatic assay of Example 24
readout: log10(IC50) (log10 of the value in nM)
log10 IC50, nM

The examples below pair each entry with its known result.
CC(C)(C)c1ccc(-n2nnnc2SCC(=O)Nc2ccc(NC(=O)C3CCCCC3)cc2Cl)c(Cl)c1
2.80
COc1ccccc1CC(=O)Nc1ccc(NC(=O)CSc2nnnn2-c2ccc(C(C)(C)C)cc2Cl)c(Cl)c1
2.00
CC(C)(C)c1ccc(-n2nnnc2SCC(=O)Nc2ccc(NC(=O)CCc3ccccc3)cc2Cl)c(Cl)c1
2.93
CC(C)(C)c1ccc(-n2nnnc2SCC(=O)Nc2ccc(NC(=O)Cc3ccc([N+](=O)[O-])cc3)cc2Cl)c(Cl)c1
2.19
CC(C)(C)c1ccc(-n2nnnc2SCC(=O)Nc2ccc(NC(=O)Cc3ccc[n+]([O-])c3)cc2Cl)c(Cl)c1
1.99

Below are 2 compounds. Give each one its log10(IC50).
1. COc1ccc(CC(=O)Nc2ccc(NC(=O)CSc3nnnn3-c3ccc(C(C)(C)C)cc3Cl)c(Cl)c2)cc1
2. CC(C)(C)c1ccc(-n2nnnc2SCC(=O)Nc2ccc(NC(=O)Cc3cccnc3)cc2Cl)c(Cl)c1

Reply:
1: 2.28; 2: 1.63

====

What pIC50 was measured for each of the following?
# system.under.test: K103NNY181C mutant reverse transcriptase (Human immunodeficiency virus type 1 group M subtype B, UniProt P04585, K690N/Y768C)
# Construct: mutations that occur in the reverse transcriptase segment of the pol gene
# assay.comment: Reverse transcriptase enzymatic assay (PicoGreen), K103N/Y181C mutant RT
# Type: biochemical, HIV-1
# condition.details: IC50 mut, K103N/Y181C mutant reverse transcriptase, enzymatic assay of Example 24
Give bare numbers, as −log10 of the molar value.

CC(C)(C#Cc1ccc(NC(=O)CSc2nnnn2-c2ccc(C3CC3)cc2Cl)c(Cl)c1)OCC(N)=O [Compound 4064]
7.94
Cc1cc(C#CC(C)(C)NC(=O)c2cc[n+]([O-])cc2)ccc1NC(=O)CSc1nnnn1-c1ccc(C2CC2)cc1Cl [Compound 4180]
7.15
CC(C)(C#Cc1ccc(NC(=O)CSc2nnnn2-c2ccc(C(C)(C)C)cc2Cl)c(Cl)c1)C(=O)O [Compound 4011]
7.60
CCNC(=O)NC(C)(C)C#Cc1ccc(NC(=O)CSc2nnnn2-c2ccc(C3CC3)cc2Cl)c(Cl)c1 [Compound 4075]
7.69
CC(C)(C#Cc1ccc(NC(=O)CSc2nnnn2-c2ccc(C3CC3)cc2Cl)c(Cl)c1)C(=O)NS(=O)(=O)c1ccccc1 [Compound 4183]
7.21

Quick one: give me pIC50 for each item below, same order please.
1. CC(C)(N)C#Cc1ccc(NC(=O)CSc2nnnn2-c2cc(C(F)(F)F)cc(C3CC3)c2Cl)c(Cl)c1F [Compound 4237]
2. CC(C)(C#Cc1ccc(NC(=O)CSc2nnnn2-c2ccc(C(C)(C)C)cc2Cl)c(Cl)c1)OCC(=O)Nc1ccon1 [Compound 4054]
3. CC(C)(C#Cc1ccc(NC(=O)CSc2nnnn2-c2ccc(C3CC3)cc2Cl)c(Cl)c1F)OCCOc1ccncc1 [Compound 4165]
4. O=C(CSc1nnnn1-c1ccc(C2CC2)cc1Cl)Nc1ccc(C#CCCN2CCCC2)cc1Cl [Compound 4132]
5. CC(C)(C)c1ccc(-n2nnnc2SCC(=O)Nc2ccc(C#CC3(O)CCC3)cc2Cl)c(Cl)c1 [Compound 4062]

Reply:
7.04
7.46
7.17
7.31
7.28

Please supply pIC50 for each of the following items, keeping them in order.
1. CC(C)(C#Cc1ccc(NC(=O)CSc2nnnn2-c2ccc(C(C)(C)C)cc2Cl)c(Cl)c1)COC(N)=O [Compound 4042]
2. CC(C)(C#Cc1ccc(NC(=O)CSc2nnnn2-c2ccc(C(C)(C)C)cc2Cl)c(Cl)c1)OCC(=O)Nc1ccc(C(=O)O)cc1 [Compound 4045]
3. CC(C)(C#Cc1ccc(NC(=O)CSc2nnnn2-c2ccc(C(C)(C)C)cc2Cl)c(Cl)c1)OCC(=O)NCC(=O)O [Compound 4052]
4. CC(C)(C#Cc1ccc(NC(=O)CSc2nnnn2-c2ccc(C3CC3)cc2Cl)c(Cl)c1)NC(=O)CCC(=O)O [Compound 4238]
5. CC(C)(O)C#Cc1ccc(NC(=O)CSc2nnnn2-c2c(F)ccc(C(F)(F)F)c2Cl)c(Cl)c1 [Compound 4022]
6. CN(C)CCCNC(=O)C(C)(C)C#Cc1ccc(NC(=O)CSc2nnnn2-c2ccc(CC3CC3)cc2Cl)c(Cl)c1 [Compound 4245]
7. CC(C)(C#Cc1ccc(NC(=O)CSc2nnnn2-c2ccc(C3CC3)cc2Cl)c(Cl)c1)OCCN1CCCC1=O [Compound 4182]
8. CC(C)(C#Cc1ccc(NC(=O)CSc2nnnn2-c2cc(C(F)(F)F)ccc2Cl)c(Cl)c1F)C(=O)NCCN1CCCC1 [Compound 4160]

Reply:
1: 7.43; 2: 7.49; 3: 7.52; 4: 8.11; 5: 6.73; 6: 6.34; 7: 7.23; 8: 6.94

Parameter requested: pIC50. Apply to each item below.
1. CC(C)(C#Cc1ccc(NC(=O)CSc2nnnn2-c2cc(C3CC3)ccc2Cl)c(Cl)c1)C(=O)O [Compound 4174]
2. CN1CCN(CCOC(C)(C)C#Cc2ccc(NC(=O)CSc3nnnn3-c3ccc(C4CC4)cc3Cl)c(Cl)c2)CC1 [Compound 4105]
3. CC(C)(C#Cc1ccc(NC(=O)CSc2nnnn2-c2ccc(C3CC3)cc2Cl)c(Cl)c1)NC(=O)C1(C(=O)O)CC1 [Compound 4233]
4. CN(C)CCCC(=O)NC(C)(C)C#Cc1ccc(NC(=O)CSc2nnnn2-c2ccc(C3CC3)cc2Cl)c(Cl)c1F [Compound 4156]
5. CC(C)(C#Cc1ccc(NC(=O)CSc2nnnn2-c2ccc(C3CC3)cc2Cl)c(Cl)c1F)OCCO [Compound 4169]
6. CC(C)(C#Cc1ccc(NC(=O)CSc2nnnn2-c2ccc(CC3CC3)cc2Cl)c(Cl)c1)NC(=O)c1cc[n+]([O-])cc1 [Compound 4247]
7. CC(C)(C#Cc1ccc(NC(=O)CSc2nnnn2-c2ccc(C3CC3)cc2Cl)c(Cl)c1)NC(=O)C1CC1 [Compound 4079]

Reply:
7.47
7.18
8.03
7.44
8.04
7.72
8.17

Give pIC50 for each listed item.
1. CC(C(=O)O)C(=O)NC(C)(C)C#Cc1ccc(NC(=O)CSc2nnnn2-c2ccc(C3CC3)cc2Cl)c(Cl)c1 (stereo not drawn) [Compound 4234]
2. CC(C)(C)c1ccc(-n2nnnc2SCC(=O)Nc2ccc(C#CCN3CCOCC3)cc2Cl)c(Cl)c1 [Compound 4010]

Reply:
1. 7.81
2. 7.57

====

# system.under.test: K103NNY181C mutant reverse transcriptase (Human immunodeficiency virus type 1 group M subtype B, UniProt P04585, K690N/Y768C)
# Construct: mutations that occur in the reverse transcriptase segment of the pol gene
# assay.comment: Reverse transcriptase enzymatic assay (PicoGreen), K103N/Y181C mutant RT
# Format: biochemical, HIV-1
# condition.details: IC50 mut, mutant reverse transcriptase, enzymatic assay of Example 24
readout: IC50 (nM)
One number for each entry, in nM.

CC(C)NS(=O)(=O)c1ccc(NC(=O)CSc2nnnn2-c2ccc(C(C)(C)C)cc2Cl)c(Cl)c1
284
CC(C)(C)c1ccc(-n2nnnc2SCC(=O)Nc2ccc(OCC(=O)NCCc3ccc(O)c(O)c3)cc2Cl)c(Cl)c1
181

For each entry beneath this line, provide reported IC50.
1. CC(C)(C)c1ccc(-n2nnnc2SCC(=O)Nc2ccc(OCC(=O)NC(CO)C(=O)O)cc2Cl)c(Cl)c1 (stereo not shown)
2. CC(C)(C)c1ccc(-n2nnnc2SCC(=O)Nc2ccc(-c3ccc(OCCN4CC[C@H](O)C4)cc3)cc2Cl)c(Cl)c1
3. O=C(CSc1nnnn1-c1cc(C(F)(F)F)ccc1Cl)Nc1ccc(-c2ccc(OCCN3CCCCC3)cc2)cc1Cl
4. CC(C)c1ccc(-n2nnnc2SCC(=O)Nc2ccc(-c3ccc(OCCN4CCCC4)cc3)cc2Cl)c(Cl)c1
5. COC(=O)Cc1ccc(-c2ccc(NC(=O)CSc3nnnn3-c3ccc(C)cc3Cl)c(Cl)c2)cc1
6. O=C(CSc1nnnn1-c1ccc(C2CC2)cc1Cl)Nc1ccc(C(=O)NCc2cc[n+]([O-])cc2)cc1Cl
7. CC(C)(C)c1ccc(-n2nnnc2SCC(=O)Nc2ccc(C(=O)NCCN3CCOCC3)cc2Cl)c(Cl)c1
8. Cc1ccc(-n2nnnc2SCC(=O)Nc2ccc(-c3ccc(CC(=O)NS(C)(=O)=O)cc3)cc2Cl)c(Cl)c1

Reply:
1. 92
2. 15
3. 54
4. 29
5. 53
6. 44.5
7. 55
8. 38
